# Test system: Hepatitis C virus
# ASSAY OVERVIEW: Antiviral activity against HCV infected in human HuH5.2 assessed as inhibition of viral RNA synthesis after 4 days by Steady-Glo-luciferase assay
# Format: functional, organism-based, Hepacivirus hominis
# CONDITION LABEL: Huh-5-2, 96 h
Response field label takes y when EC50 is strictly below 7 µg/mL and n in all other cases.

Strictly below 7 µg/mL: is that where EC50 of Cn1c2cc(Cl)c(N)cc2c(=O)c2c(O)cc(O)cc21 sits?
y

Strictly below 7 µg/mL: is that where EC50 of Cn1c2cc(N3CCN(c4nc5ccccc5o4)CC3)c(N)cc2c(=O)c2c(O)cc(O)cc21 sits?
n

Strictly below 7 µg/mL: is that where EC50 of Cn1ccc(=O)c2cc(N)c(N3CCN(c4ccccn4)CC3)cc21 sits?
n

Strictly below 7 µg/mL: is that where EC50 of COc1cc(OC)c2c(=O)c3cc(N)c(Cl)cc3n(CCC(C)C)c2c1 sits?
n

Strictly below 7 µg/mL: is that where EC50 of COc1ccc(C(=O)c2ccc(N3CCN(c4ccccn4)CC3)c(N)c2)c(OC)c1 sits?
y

Strictly below 7 µg/mL: is that where EC50 of COc1cc(OCC(C)C)c2c(=O)c3cc(N)c(N4CCN(c5ccccn5)CC4)cc3n(C)c2c1 sits?
y

Strictly below 7 µg/mL: is that where EC50 of COc1cc(OC)c2c(=O)c3cc(N)c(N4CCN(c5ccccn5)CC4)cc3[nH]c2c1 sits?
y

Strictly below 7 µg/mL: is that where EC50 of COc1cc(OC)c2c(=O)c3cc(N)c(N4CCN(c5ccccn5)CC4)cc3n(CCC(C)C)c2c1 sits?
n

***
Strictly below 7 µg/mL: is that where EC50 of Cc1cc(C)c2c(=O)c3cc(N)c(N4CCN(c5ccccn5)CC4)cc3n(C)c2c1C sits?
y

Strictly below 7 µg/mL: is that where EC50 of CCn1c2cc(Cl)c(N)cc2c(=O)c2c(O)cc(O)cc21 sits?
y
